TESTED ON: UniProt:P42336
ASSAY READOUT: IC50

Sample records with IC50:
- ITEM SMILES: "CN(C)[C@H]1CCN(C(=O)c2ccc(NC(=O)Nc3ccc(-c4nc(N5CCOCC5)c5ccc(C(C)(C)O)cc5n4)cc3)cc2)C1"
  ASSAY READOUT: "IC50"
  MEASURED VALUE: "50 to 200 nM"
- ITEM SMILES: "CN(C)C(=O)c1ccc(NC(=O)Nc2ccc(-c3nc(N4CCOCC4)c4ncc(-c5cccc(S(C)(=O)=O)c5)cc4n3)cc2F)cc1"
  ASSAY READOUT: "IC50"
  MEASURED VALUE: "< 50 nM"
- ITEM SMILES: "CN(C)C(=O)c1ccc(NC(=O)Nc2ccc(-c3nc(N4CCOCC4)c4ccc(-c5ccco5)cc4n3)cc2)cc1"
  ASSAY READOUT: "IC50"
  MEASURED VALUE: "< 50 nM"

Item: `Cc1ccc(-c2ccc3c(N4CCOCC4)nc(-c4ccc(NC(=O)Nc5ccc(C(=O)N(C)C)cc5F)cc4)nc3c2)cn1` Test system: UniProt:P42336 Read-out: IC50 Value: ? < 50 nM

Item: `COc1ncccc1-c1ccc2c(N3CCOCC3)nc(-c3ccc(NC(=O)Nc4ccc(C(=O)N(C)C)cc4)cc3F)nc2c1` Test system: UniProt:P42336 Read-out: IC50 Value: ? 50 to 200 nM

Item: `CN(C)C(=O)c1ccc(NC(=O)Nc2ccc(-c3nc(N4CCOCC4)c4ccc(-c5cnn(C)c5)cc4n3)c(F)c2)cc1` Test system: UniProt:P42336 Read-out: IC50 Value: ? 50 to 200 nM

Item: `CN(C)C(=O)c1ccc(NC(=O)Nc2ccc(-c3nc(N4CCOCC4)c4ncc(-c5cncnc5)cc4n3)cc2)cc1F` Test system: UniProt:P42336 Read-out: IC50 Value: ? < 50 nM

====

TESTED ON: PIK3CA (human), P42336 [E545K]
Sequence (P42336 whole entry E545K, looked up): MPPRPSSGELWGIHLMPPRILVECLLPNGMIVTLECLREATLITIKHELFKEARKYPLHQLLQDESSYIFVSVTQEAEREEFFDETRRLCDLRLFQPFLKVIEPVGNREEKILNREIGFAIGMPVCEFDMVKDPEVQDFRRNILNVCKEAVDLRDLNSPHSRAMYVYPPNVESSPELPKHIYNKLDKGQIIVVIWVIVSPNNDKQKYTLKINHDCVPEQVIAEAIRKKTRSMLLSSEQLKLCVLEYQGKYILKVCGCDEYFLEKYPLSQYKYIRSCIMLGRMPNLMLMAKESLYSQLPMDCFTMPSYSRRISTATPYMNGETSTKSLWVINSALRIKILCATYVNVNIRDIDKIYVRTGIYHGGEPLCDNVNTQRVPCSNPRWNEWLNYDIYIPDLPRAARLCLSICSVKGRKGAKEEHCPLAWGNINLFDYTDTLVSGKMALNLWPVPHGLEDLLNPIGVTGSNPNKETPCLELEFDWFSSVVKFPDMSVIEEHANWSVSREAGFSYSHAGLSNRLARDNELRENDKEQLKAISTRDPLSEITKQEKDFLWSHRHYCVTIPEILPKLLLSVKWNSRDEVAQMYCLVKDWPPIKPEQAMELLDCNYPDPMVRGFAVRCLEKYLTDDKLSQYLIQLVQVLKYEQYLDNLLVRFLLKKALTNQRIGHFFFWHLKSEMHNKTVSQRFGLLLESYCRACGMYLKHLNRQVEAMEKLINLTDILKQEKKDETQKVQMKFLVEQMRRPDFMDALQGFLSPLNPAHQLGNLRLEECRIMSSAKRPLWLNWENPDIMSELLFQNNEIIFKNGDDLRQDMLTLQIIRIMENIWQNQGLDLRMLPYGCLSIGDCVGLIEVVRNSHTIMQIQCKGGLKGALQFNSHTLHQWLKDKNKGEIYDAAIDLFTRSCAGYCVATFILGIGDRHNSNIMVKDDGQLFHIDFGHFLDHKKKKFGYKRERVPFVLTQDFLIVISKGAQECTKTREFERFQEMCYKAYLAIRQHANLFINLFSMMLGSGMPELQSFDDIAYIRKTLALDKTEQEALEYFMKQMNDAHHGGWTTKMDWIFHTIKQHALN
TEST NAME: Assessment of PIK3CA(E545K) Kinase Activity
pIC50: −log10 of the molar value.
ASSAY READOUT: pIC50

Sample records with pIC50:
- ITEM SMILES: "CN(C)C(=O)c1ccc(NC(=O)Nc2ccc(-c3nc(N4CCOCC4)c4ncc(-c5cccnc5F)cc4n3)cn2)cc1"
  pIC50: "> 7.30"
- ITEM SMILES: "CN(C)C(=O)c1ccc(NC(=O)Nc2ccc(-c3nc(N4CCOCC4)c4ccc(-c5cccnc5F)cc4n3)cn2)cc1"
  pIC50: "> 7.30"
- ITEM SMILES: "CN(C)C(=O)c1ccc(NC(=O)Nc2ccc(-c3nc(N4CCOCC4)c4ccc(-c5cccc(S(C)(=O)=O)c5)cc4n3)cn2)cc1"
  pIC50: "> 7.30"
- ITEM SMILES: "CN(C)C(=O)c1ccc(NC(=O)Nc2ccc(-c3nc(N4CCOCC4)c4ccc(-c5cccnc5F)cc4n3)cc2)c(F)c1"
  pIC50: "6.30 to 7.30"
- ITEM SMILES: "CN(C)C(=O)c1ccc(NC(=O)Nc2ccc(-c3nc(N4CCOCC4)c4ccc(-c5cncnc5)cc4n3)cc2)cc1"
  pIC50: "> 7.30"

Next compound, please.
Item: `Cc1ccc(-c2ccc3c(N4CCOCC4)nc(-c4ccc(NC(=O)Nc5ccc(C(=O)N(C)C)cc5)cc4)nc3c2)o1` Test system: PIK3CA (human), P42336 [E545K] Read-out: pIC50 Value: ? > 7.30
